Data origin, for the record: PubChem BioAssay

test: antimalarial activity against Dd2 strain (AID 2302); settings: P. falciparum Dd2 in RBCs, LDH growth readout, 72 h; at 2 µM
Calls of active or inactive are those of the source.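 The calls were made as follows: active = growth inhibition above 50% at the single 2 µM test dose, taken to imply half-maximal potency below 2 µM; inactive = the rest.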
I would appreciate it if you answered using one of these outcomes: active, inactive

query: # lookup: test call for `CC(C)C[C@H](NC(=O)c1cc2ccccc2s1)C(=O)N[C@H]1CCN(Cc2ccc(OCCN3CCNCC3)c3ccccc23)C1`
result: active

query: # lookup: test call for `O=C(Cc1cccc(Cl)c1)Nc1cccc(-c2c[nH]c3nc(Nc4cccc(O)c4)ncc23)c1`
result: active

query: # lookup: test call for Cc1cc(N(C)C2CCN(CC3CCCCC3)C2)nc(Nc2ccc(Cl)cc2)n1 (centres undefined)
result: inactive

query: # lookup: test call for `COc1ccc(CON2C(N)=NC(N)=NC2(C)C)cc1OC`
result: active
